What survival was measured for each of the following?
- Test system: Wild type
- Method Summary: S. aureus survival, RN4220 and DeltatarO strains – OD600, teichoic acid synthesis inhibitors, primary screen (AID 463173)
- Conditions Used: S. aureus RN4220 wild type/DeltatarO growth, OD600, 18 h, active compounds read low, screened at 18.75 µg/mL (by protocol)
Out of some 52,000 compounds screened, about 1,700 (3.3%) were called active. For the sample, actives were picked, then their nearest neighbours and some compounds at random.
Write the number in % without appending the unit.

Req: Give recorded survival with Wild type for the following compound: COc1ccc(C(=O)Nc2nc3ccccc3n2CCOc2ccc(Cl)cc2)cc1
Resp: 4

Req: Give recorded survival with Wild type for the following compound: O=C(CSc1nc2ncccc2o1)Nc1cccc(C(F)(F)F)c1
Resp: -3

Req: Give recorded survival with Wild type for the following compound: O=C(Cn1c(=O)n(-c2ccccc2)c(=O)c2c3c(sc21)CCC3)c1ccc(Br)cc1
Resp: 87

Req: Give recorded survival with Wild type for the following compound: Cc1ccccc1Nc1sc(C(=O)c2ccc(F)cc2)c(N)c1C(=O)NCCc1ccccc1
Resp: 55

Req: Give recorded survival with Wild type for the following compound: COc1cccc(NS(=O)(=O)c2ccc3[nH]cc(C(=O)NC4CCCCC4)c(=O)c3c2)c1
Resp: 50

Req: Give recorded survival with Wild type for the following compound: COc1ccc(N2CCN(c3ncccc3-c3nc(-c4ccccc4C)no3)CC2)cc1
Resp: 87

Req: Give recorded survival with Wild type for the following compound: COc1ccccc1OCCn1c(NC(=O)c2ccccc2Cl)nc2ccccc21
Resp: -10

Req: Give recorded survival with Wild type for the following compound: CCCCCOc1ccc(/C=C/C(=O)Nc2sc(C(C)=O)c(C)c2C(=O)OCC)cc1OC
Resp: 76

Req: Give recorded survival with Wild type for the following compound: COc1cc(NC(=O)CSc2nc3ncccc3o2)cc(OC)c1
Resp: 57

Req: Give recorded survival with Wild type for the following compound: Cc1ccc2oc(=O)c3cc(C(=O)Nc4ccc(F)cc4F)sc3c2c1
Resp: 80

Req: Give recorded survival with Wild type for the following compound: O=C(Nc1cccc(Br)c1)c1cc(-c2ccc3c(c2)OCCO3)on1
Resp: 80

Req: Give recorded survival with Wild type for the following compound: CCc1ccccc1NC(=O)c1ccc(Cn2nc(N3CCN(c4ccccc4)CC3)ccc2=O)o1
Resp: 70

Req: Give recorded survival with Wild type for the following compound: CCOc1ccc2[nH]c(=O)c(-c3nc4cccc(C)n4c3NCc3ccco3)cc2c1
Resp: 108

Req: Give recorded survival with Wild type for the following compound: COc1ccccc1Nc1cc(C)nc2nc(-c3ccccc3)nn12
Resp: 14

Req: Give recorded survival with Wild type for the following compound: Cc1cc(Nc2cc(Cl)ccc2C)n2nc(-c3ccccc3)nc2n1
Resp: 93

Req: Give recorded survival with Wild type for the following compound: CCn1cc(S(=O)(=O)c2ccccc2)c(=O)c2cc(F)c(F)cc21
Resp: 82

Req: Give recorded survival with Wild type for the following compound: CCOC(=O)c1ccc(NC(=O)CN2c3ccccc3S(=O)(=O)c3ccccc32)cc1
Resp: 121

Req: Give recorded survival with Wild type for the following compound: Cc1cc(Nc2ccccc2F)n2nc(-c3ccccc3)nc2n1
Resp: 84

Req: Give recorded survival with Wild type for the following compound: COc1ccc(OCCn2c(NC(=O)c3ccc(OC)cc3)nc3ccccc32)cc1
Resp: -13

Req: Give recorded survival with Wild type for the following compound: Cc1cccc(OC(=O)c2cc(-c3ccc4c(c3)OCCO4)on2)c1C
Resp: -6

Req: Give recorded survival with Wild type for the following compound: CC1CCN(C(=O)Cn2c(=O)n(CC3CCC(C(=O)NC(C)C)CC3)c(=O)c3sccc32)CC1 (stereo not given)
Resp: 78

Req: Give recorded survival with Wild type for the following compound: O=C(CN1CCCN(Cc2ccc(F)cc2)S1(=O)=O)NCc1ccccc1Cl
Resp: 78

Req: Give recorded survival with Wild type for the following compound: COc1ccccc1OCCn1c(C(C)Oc2ccccc2)nc2ccccc21 (stereo not given)
Resp: 76

Req: Give recorded survival with Wild type for the following compound: CN(C(=O)c1c[nH]c2ccc(S(=O)(=O)Nc3cccc(C(F)(F)F)c3)cc2c1=O)C1CCCCC1
Resp: 71

Req: Give recorded survival with Wild type for the following compound: Cc1ccc(C(=O)N2CCn3c4c(c5cc(C)ccc53)CCCC42)cc1 (stereo not given)
Resp: -10
